- Test system: MS2 coat protein
- method.description: apparent KD of MS2 coat protein; designed switch direction (-1 OFF switch, 1 ON switch): -1; higher = weaker reporter binding
- measurement.parameters: input ligand: FMN 200 uM
Quick rule for you: apparent KD of MS2 coat protein at 100 nM or higher means criterion met, lower means criterion not met.

Solved entries (count: 6):
Decide: is the reported value of apparent KD of MS2 coat protein for AUCUGUGAGCGAGGAUAUCUGCUGUUGUCGGUCGGAGAAGGCGCGGACAGAACAUGAGGAUCACCCAUGUGUAUGGGCGGCCUC [Isvetima] (Eterna round: R96, puzzle: Exclusion NG 1) equal to or greater than 100 nM?
criterion met

Decide: is the reported value of apparent KD of MS2 coat protein for GGAGAUCGAGGAUAUACAUGAGGAUCACCCAUGUCCGUAGACUGGGAUCGCGGCAGUGGUAGAAGGUGGAAAAU [Eternabot (L2) Solution 67] (Eterna round: R97, puzzle: Exclusion 3) equal to or greater than 100 nM?
criterion met

Decide: is the reported value of apparent KD of MS2 coat protein for UGAUGGAGGCAGGAUAUUUUGAUGGAUACGAUAAAAGAAGGGCUGACAUGAGGAUCACCCAUGUGGAUAGCUCA [Eternabot (L1) Solution 39] (Eterna round: R97, puzzle: Exclusion 6) equal to or greater than 100 nM?
criterion not met

Decide: is the reported value of apparent KD of MS2 coat protein for CCGCUGCAAGGAUAUACUUGCGGUGGUGCUCGAGAUCUUUUACUUGAGGAUCACCCAAGUAGAAGGUGCAAAAC [jl-ex2.4.53 ViennaUCT mod] (Eterna round: R97, puzzle: Exclusion 2) equal to or greater than 100 nM?
criterion not met

Decide: is the reported value of apparent KD of MS2 coat protein for UAUAUAUAGUAAGGAUAUGUAUAUAUUUUAUGAACAGAAGGUACUGACAUGAGGAUCACCCAUGUUUUAGUGUGGGCAUGUAGA [JMF's solution 70] (Eterna round: R96, puzzle: Exclusion NG 1) equal to or greater than 100 nM?
criterion not met

Decide: is the reported value of apparent KD of MS2 coat protein for UGUUGUCGCGUAGGAUAUGGCCAACAGGCCGUAGGAUAUGGGAAACCAGAAGGACCGCCAACAGGCGAGAAGGACGGGACAACU [pwkr exNG2 2xF7 2xFMN.21] (Eterna round: R96, puzzle: Exclusion NG 2) equal to or greater than 100 nM?
criterion met

Others:
Decide: is the reported value of apparent KD of MS2 coat protein for GGGAAGGGAGGAUAUGAGGAGGAGAACAUGAGGAUCACCCAUGUGAGGCCUCAGGAUCAAUCAGAAGGCCCGAUCC [AK-MS2ROC-r4-exclusion5-15.1] (Eterna round: R97, puzzle: Exclusion 5) equal to or greater than 100 nM?
criterion not met

Decide: is the reported value of apparent KD of MS2 coat protein for GACCACUCAGGAUAUCGGACGGGAAACAUGAGGAUCACCCAUGUGAUGCUGAUAUUCGCACGAGAAGGGAGAAUGA [EX5 B.21] (Eterna round: R97, puzzle: Exclusion 5) equal to or greater than 100 nM?
criterion not met

Decide: is the reported value of apparent KD of MS2 coat protein for UUAAAUCAUGUAGGAUAUGCUUUGCGAAGCGAGGCAGAAGGACAUGAGGAUCACCCAUGUGCUAGCGUCCGAGUACGGAUGCAA [Mat - Exclusion NG 1 - Mod of JL - D62] (Eterna round: R96, puzzle: Exclusion NG 1) equal to or greater than 100 nM?
criterion met

Origin of values: the supplement of paper PMC9170038
